IC50 reference
Biological target: NLRP3 (Homo sapiens, UniProt Q96P20)
Construct: full-length NLRP3-Nanoluc fusion protein
Sequence (Q96P20 whole entry, the tested form may be a part): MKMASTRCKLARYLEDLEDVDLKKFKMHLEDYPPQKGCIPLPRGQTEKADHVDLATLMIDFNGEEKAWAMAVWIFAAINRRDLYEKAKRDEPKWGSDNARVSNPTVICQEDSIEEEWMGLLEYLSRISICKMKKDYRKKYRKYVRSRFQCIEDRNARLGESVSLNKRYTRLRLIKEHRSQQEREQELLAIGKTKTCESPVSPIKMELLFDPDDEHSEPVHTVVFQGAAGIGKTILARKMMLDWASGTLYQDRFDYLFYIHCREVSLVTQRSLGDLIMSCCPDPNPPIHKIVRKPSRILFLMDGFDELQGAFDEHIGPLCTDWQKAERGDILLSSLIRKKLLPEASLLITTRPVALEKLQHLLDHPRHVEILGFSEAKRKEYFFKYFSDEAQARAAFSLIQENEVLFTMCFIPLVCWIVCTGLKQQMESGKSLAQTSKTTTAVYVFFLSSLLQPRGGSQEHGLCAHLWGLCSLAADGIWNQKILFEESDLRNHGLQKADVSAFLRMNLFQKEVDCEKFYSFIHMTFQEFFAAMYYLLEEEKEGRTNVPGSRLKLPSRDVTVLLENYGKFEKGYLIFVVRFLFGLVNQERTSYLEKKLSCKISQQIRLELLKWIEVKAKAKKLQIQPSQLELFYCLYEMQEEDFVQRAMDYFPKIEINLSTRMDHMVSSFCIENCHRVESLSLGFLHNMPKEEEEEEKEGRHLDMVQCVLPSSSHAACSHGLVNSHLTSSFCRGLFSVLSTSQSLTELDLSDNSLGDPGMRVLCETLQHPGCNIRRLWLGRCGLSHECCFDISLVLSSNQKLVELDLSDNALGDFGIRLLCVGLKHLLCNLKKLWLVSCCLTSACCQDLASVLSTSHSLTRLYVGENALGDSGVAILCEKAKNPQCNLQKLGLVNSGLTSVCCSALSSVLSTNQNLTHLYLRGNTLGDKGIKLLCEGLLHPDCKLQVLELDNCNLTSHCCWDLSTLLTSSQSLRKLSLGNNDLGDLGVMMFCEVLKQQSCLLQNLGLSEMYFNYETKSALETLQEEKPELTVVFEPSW
Experiment: NanoBRET target engagement (tracer displacement) in live HEK293 cells
Supply the numeric figure in nM, leaving out any unit text.

CC(C)(O)c1nn(CC(=O)Nc2ccncn2)c(=O)c2cc3sc(Cl)cc3n12 ... 212

Problem: Lab note: need IC50 for "CC(C)c1nn(CC(=O)N[C@@H]2CCCN(CC3CC3)C2)c(=O)c2cc3sc(Cl)cc3n12" on NLRP3 (Homo sapiens, UniProt Q96P20), anyone have it?
Solution: 131
